tested on: HEK293T; assay: median enrichment of reporter reads in eGFP-reduced (low/intermediate) vs eGFP-high sorted cells (eGFP-extension fusion abundance) (ratio); higher = stronger loss of eGFP-fusion protein abundance (more destabilising extension)
outcome.measure: median enrichment

Need median enrichment for each of these substances.
1. EEEEEEE [Glu07]
2. LPCSSTVTTRQALLSAEGVIPGPPVCVIVTMPCRDILEATHGWRNPEPPPQPTWLFVDSRRQGCAWLLTCC [PFKFB4]
3. WPLGRPPAQLPCPPPPSSSGFSVLGRLSWGRRWEGRDQLSSLAGKRGCGSQGGLQGTGMSGGHQAQRKRKQREFTGPPEKSQS [CRHR2]
4. RFQIWRRPGKPTEVQHVICLKVVLLHHIDDPTTSNMGHSIHFNISIFLYHFCYLSV [ARPC5]

Output:
1. 1.23
2. 11.1
3. 1.19
4. 6.81

---

tested on: HEK293T; assay: median enrichment of reporter reads in eGFP-reduced (low/intermediate) vs eGFP-high sorted cells (eGFP-extension fusion abundance) (ratio); higher = stronger loss of eGFP-fusion protein abundance (more destabilising extension)
Decision: median enrichment compared against 10; not below it gives criterion met, below it gives criterion not met.

# example entries with known answers
substance: WSSVVE [TMEM17]
target: HEK293T
assigned.label: criterion not met

substance: YILYNCEINLR [OR4F4]
target: HEK293T
assigned.label: criterion not met

substance: KSFPLTLLQIGL [PTHLH]
target: HEK293T
assigned.label: criterion met

substance: RPCAEALPGFTQLMDSSVLTLSTTPFTSLFDFRSYRHCLR [GINS1]
target: HEK293T
assigned.label: criterion not met

Input: # check: median enrichment of HHHHHHH [His07] is greater than or equal to 10
Output: criterion not met

---

Field: median enrichment. Provide a value for each of the sequences that follow.
tested on: HEK293T; experiment: median enrichment of reporter reads in eGFP-reduced (low/intermediate) vs eGFP-high sorted cells (eGFP-extension fusion abundance) (ratio); higher = stronger loss of eGFP-fusion protein abundance (more destabilising extension)
Answers are plain numbers.

Study these solved cases before continuing.
sequence.string: YFFLELKHPRMPLHVFHSPHLQTSLLFLTRPESKLPSLGNSGEGVSCTTYHTPSHPVSDFGMDSGKLGPSLNRVMYLNVCYFQ [HSPA1L]
target: HEK293T
outcome.measure: median enrichment
measured: 10.9
--
sequence.string: SKTNTFYLWEAVPRFQPEL [ZBTB21]
target: HEK293T
outcome.measure: median enrichment
measured: 11.3
--
sequence.string: REPKGDWALWQLLSHTVDHSSPSCSLSSSECGW [TRIM66]
target: HEK293T
outcome.measure: median enrichment
measured: 12.8

Okay, next one:
Input: Would you kindly share the measured median enrichment for TTMERWAVAMVDGLPGWAFELALGTTRLSLSSHGTQKCAAMLPRVLSPHLSQPSWRPGLSLQPLGPALIAGGQALDLEGLAHP [ADGRG1] ?
Output: 5.12

---

test system: HEK293T; experiment: median enrichment of reporter reads in eGFP-reduced (low/intermediate) vs eGFP-high sorted cells (eGFP-extension fusion abundance) (ratio); higher = stronger loss of eGFP-fusion protein abundance (more destabilising extension);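 further: lentiviral eGFP-IRES-mCherry reporter pool sorted by FACS 96 h post-transduction, gated on mCherry-high cells, Illumina read counts normalized per million, median across four biological replicates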
outcome.measure: median enrichment
Numbers only.

sequence.string: YPSQGCSSVPSRRMWQGRAGSE [SERPINA4]
outcome.measure: median enrichment
measured: 0.599

Items follow; give median enrichment for each.
1. KQEWQSKLKL [UHRF1BP1L]
2. LAVWAPRGLALLPGLGEPRAALPWQRQDVGERSLVQ [GRK6]
3. CRSWRTLGPRPAPIAGGR [MKNK2]
4. KPERSQDPSRQHQLTDALVVPPSSPDCARSAVPSSGHLSSLWVPPHPSPC [RBP5]

Output:
0.342
3.3
8.08
5.79
